molecular target: Ubiquitin carboxyl-terminal hydrolase 17-like protein 5 (Homo sapiens); test: ubiquitin-specific protease 17 DUB inhibitors, concentration-effect assay, cell-free, verification of initial screening actives (AID 1645864); settings: purified USP17, ubiquitin-rhodamine cleavage fluorescence, 3 h
Active and inactive are the calls of the source.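 How the source made its calls: active means maximal inhibition of USP17 at or above 30% in the confirmation dose-response, a value not among the printed readouts; inactive means the rest.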
Outcomes: active, inactive

{"COMPOUND": "Cc1cccc(NC(=O)Cn2cnc(-c3noc(-c4ccccc4)n3)c2)c1C", "CLASS_ASSIGNMENT": "active"}
{"COMPOUND": "CCCc1nc2sc3c(NCc4ccco4)ncnc3c2c2c1CCC2", "CLASS_ASSIGNMENT": "inactive"}
{"COMPOUND": "COc1ccccc1-c1nc(-c2nnn(Cc3ccc(C)cc3)c2C)no1", "CLASS_ASSIGNMENT": "inactive"}
{"COMPOUND": "COc1ccc(C2CC(c3ccccc3)N(C(=O)C3CC3)c3ncnn32)cc1 (centres undefined)", "CLASS_ASSIGNMENT": "inactive"}
{"COMPOUND": "O=C(CCCC(=O)c1ccccc1)Nc1ccc(F)cc1", "CLASS_ASSIGNMENT": "active"}
{"COMPOUND": "O=[N+]([O-])c1cccc(CSc2nnc(/C=C/c3ccccc3)o2)c1", "CLASS_ASSIGNMENT": "inactive"}
{"COMPOUND": "COc1cccc(N2CCN(C(=O)C3CCN(c4nc(NC(C)=O)ns4)CC3)CC2)c1", "CLASS_ASSIGNMENT": "active"}
{"COMPOUND": "O=C(COc1ccc2c(c1)CCC2)Nc1ccc2c(c1)CCC2", "CLASS_ASSIGNMENT": "active"}
{"COMPOUND": "Cc1nn(-c2ccccc2)c(C)c1C(=O)OCC(=O)Nc1cccc(Br)c1", "CLASS_ASSIGNMENT": "active"}
{"COMPOUND": "COc1ccccc1NS(=O)(=O)c1cccc(NC(=O)CCc2nc3ccccc3s2)c1", "CLASS_ASSIGNMENT": "active"}
{"COMPOUND": "COc1cccc(NC(=O)c2nnn(-c3ccccc3)n2)c1", "CLASS_ASSIGNMENT": "inactive"}
{"COMPOUND": "Cc1ccc2c(c1)N(Cc1nc(-c3ccc(F)cc3)no1)C(=O)CO2", "CLASS_ASSIGNMENT": "inactive"}
{"COMPOUND": "CN(C)C(=O)CSc1nnc(-c2cccc(Cl)c2)n1-c1ccc(Cl)c(C(F)(F)F)c1", "CLASS_ASSIGNMENT": "active"}
{"COMPOUND": "O=C(/C=C/c1ccc(F)cc1)N1CCC(Cc2ccccc2)CC1", "CLASS_ASSIGNMENT": "active"}
{"COMPOUND": "COc1ccc(NC(=O)Cn2cc(C(=O)c3ccc(F)cc3)c(=O)c3cc(C)ccc32)cc1", "CLASS_ASSIGNMENT": "active"}
{"COMPOUND": "O=C(Nc1ccccc1Br)c1ccn(COc2ccccc2F)n1", "CLASS_ASSIGNMENT": "active"}
{"COMPOUND": "O=C(CNc1ccc(F)c(Cl)c1)Nc1ccc2c(c1)OCCO2", "CLASS_ASSIGNMENT": "inactive"}
{"COMPOUND": "Cc1cc(C(=O)N2CCN(C3CCN(Cc4ccc(Cl)o4)CC3)C(=O)C2)c(C)o1", "CLASS_ASSIGNMENT": "inactive"}
{"COMPOUND": "O=S(=O)(c1cccc(F)c1)N1CCc2nc3ccccc3n2CC1", "CLASS_ASSIGNMENT": "active"}
{"COMPOUND": "CCOc1ccc(C(=O)Cn2c(=O)n(CC3CCCO3)c(=O)c3cc(OC)c(OC)cc32)cc1Cl (centres undefined)", "CLASS_ASSIGNMENT": "active"}
{"COMPOUND": "O=[N+]([O-])c1ccc(N2CCN(c3ncnc4c3[nH]c3ccc(F)cc34)CC2)cc1", "CLASS_ASSIGNMENT": "active"}
{"COMPOUND": "COc1ccc(NC(=O)COc2cc(CSc3ccccc3)ncc2OC)cc1", "CLASS_ASSIGNMENT": "active"}
{"COMPOUND": "Cc1cc(C)n2nc(CNc3cccc(Cl)c3)nc2n1", "CLASS_ASSIGNMENT": "inactive"}
{"COMPOUND": "Cc1nc(C(=O)Nc2cccc(Cl)c2Cl)nn1-c1cc(Cl)cc(Cl)c1", "CLASS_ASSIGNMENT": "active"}
{"COMPOUND": "Nc1ncnc2c1ncn2[C@@H]1O[C@H](CO)C[C@@H]1O", "CLASS_ASSIGNMENT": "active"}
{"COMPOUND": "Cc1nn(-c2ccc(F)cc2)cc1-c1noc(C(=O)NCc2ccccn2)n1", "CLASS_ASSIGNMENT": "active"}
{"COMPOUND": "O=C(COc1ccc2c(-c3ccccc3)cc(=O)oc2c1)Nc1cccnc1", "CLASS_ASSIGNMENT": "active"}
{"COMPOUND": "N#Cc1ccc(NC(=O)c2ccc(S(=O)(=O)N3CCCCC3)cc2)cc1", "CLASS_ASSIGNMENT": "active"}
{"COMPOUND": "Cc1nn(CC(=O)NCc2ccccc2F)c2ccccc12", "CLASS_ASSIGNMENT": "active"}
{"COMPOUND": "O=c1c2ccccc2c(-c2nc(-c3ccncc3)no2)cn1-c1ccccc1", "CLASS_ASSIGNMENT": "active"}
{"COMPOUND": "COCCCNC(=O)c1ccc(Cn2c(=O)c3ccccc3n(CC(=O)Nc3ccc(OC)cc3)c2=O)cc1", "CLASS_ASSIGNMENT": "active"}
{"COMPOUND": "C[C@H](NC(=O)Cc1ccccc1F)c1nc2cc(-c3ccccc3F)ncn2n1", "CLASS_ASSIGNMENT": "inactive"}
{"COMPOUND": "O=C1Oc2nc3ccccc3cc2CN1Cc1ccco1", "CLASS_ASSIGNMENT": "active"}
{"COMPOUND": "Cn1c(CCN2CCCC2)nc2cc(NC(=O)c3ccccc3)ccc21", "CLASS_ASSIGNMENT": "inactive"}
{"COMPOUND": "CCCc1cc(=O)oc2cc(OCC(=O)NCc3ccc(OC)cc3)ccc12", "CLASS_ASSIGNMENT": "active"}
{"COMPOUND": "O=C(Nc1cccc2ccccc12)C1CCCN(S(=O)(=O)Cc2ccccc2)C1 (centres undefined)", "CLASS_ASSIGNMENT": "active"}
{"COMPOUND": "CC(C)c1ccc(NC(=O)c2cc3ncc(Br)cn3n2)cc1", "CLASS_ASSIGNMENT": "active"}
{"COMPOUND": "CC(C)Cc1nc2sc3c(NCCN4CCOCC4)ncnc3c2c2c1CCC2", "CLASS_ASSIGNMENT": "inactive"}
{"COMPOUND": "CC(=O)c1ccc(N2C(=O)N(Cc3cccc([N+](=O)[O-])c3)c3ccccc3S2(=O)=O)cc1", "CLASS_ASSIGNMENT": "inactive"}
{"COMPOUND": "COc1ccccc1Nc1ncc(C(=O)NCCc2ccc(Cl)cc2)c2ccccc12", "CLASS_ASSIGNMENT": "active"}
{"COMPOUND": "COc1ccc(CN2CCCC23CCCN(C(=O)CCc2cccnc2)C3)cc1F (centres undefined)", "CLASS_ASSIGNMENT": "active"}
{"COMPOUND": "O=C(Nc1nnc2n1CCCS2)c1cc2ccccc2o1", "CLASS_ASSIGNMENT": "inactive"}
{"COMPOUND": "Cc1nc(-c2ccc(C(=O)NCc3ccc(F)cc3)cc2)cs1", "CLASS_ASSIGNMENT": "active"}
{"COMPOUND": "Cc1ccc(C(=O)Nc2ccc3nccnc3c2)cc1", "CLASS_ASSIGNMENT": "inactive"}

* * *

biological target: Ubiquitin carboxyl-terminal hydrolase 17-like protein 5 (Homo sapiens) (UniProt A8MUK1); experiment: ubiquitin-specific protease 17 DUB inhibitors, concentration-effect assay, cell-free, verification of initial screening actives (AID 1645864); conditions: purified USP17, ubiquitin-rhodamine cleavage fluorescence, 3 h
Sequence (A8MUK1 whole entry, looked up): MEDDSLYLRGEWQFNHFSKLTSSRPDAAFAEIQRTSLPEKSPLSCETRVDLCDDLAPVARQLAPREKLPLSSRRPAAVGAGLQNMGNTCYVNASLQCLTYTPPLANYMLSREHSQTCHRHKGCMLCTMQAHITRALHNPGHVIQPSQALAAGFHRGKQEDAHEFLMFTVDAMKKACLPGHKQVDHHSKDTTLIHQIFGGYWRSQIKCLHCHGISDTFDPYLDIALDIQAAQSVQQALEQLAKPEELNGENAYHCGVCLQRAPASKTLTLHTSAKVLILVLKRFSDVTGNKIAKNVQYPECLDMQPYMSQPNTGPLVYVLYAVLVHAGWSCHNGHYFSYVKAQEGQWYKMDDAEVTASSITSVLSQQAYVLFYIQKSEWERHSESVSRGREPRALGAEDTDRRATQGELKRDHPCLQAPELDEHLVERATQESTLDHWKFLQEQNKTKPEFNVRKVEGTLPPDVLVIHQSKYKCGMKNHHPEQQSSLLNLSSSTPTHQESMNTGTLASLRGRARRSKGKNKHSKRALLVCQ
Calls of active or inactive are those of the source.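 Rule for the calls: active = maximal inhibition of USP17 at or above 30% in the confirmation dose-response, a value not among the printed readouts; inactive = the rest.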
Classes used: active, inactive

{"MOLECULE": "Cc1cc(NC(=O)Cn2c(=O)n(CCCCC(=O)NCc3ccco3)c(=O)c3ccccc32)ccc1Br", "CLASS_ASSIGNMENT": "active"}
{"MOLECULE": "O=C(COc1ccccc1-c1nnc(-c2ccccc2)o1)Nc1ccc(F)cc1F", "CLASS_ASSIGNMENT": "active"}
{"MOLECULE": "CC1CCc2sc(NC(=O)c3ccccc3Oc3ccccc3)c(C(N)=O)c2C1 (stereo not given)", "CLASS_ASSIGNMENT": "active"}
{"MOLECULE": "Cc1cc(C(=O)Nc2ccc3c(c2)OCCO3)no1", "CLASS_ASSIGNMENT": "inactive"}
{"MOLECULE": "O=C(NCc1ccc(F)cc1)N1CCC2(C1)Nc1cccnc1NC2=NCc1ccccc1 (stereo not given)", "CLASS_ASSIGNMENT": "inactive"}
